PROTOCOL_NOTES: Oral bioavailability in rat
Assay type: ADME, organism-based
STUDY_CONDITIONS: in vivo
MEASURE_NAME: bioavailability (%)
Reply with just the number (in %).

Fill in: bioavailability of Cc1c(O)cccc1C(=O)N[C@@H](CSc1ccccc1)[C@H](O)CN1C[C@H]2CCCC[C@H]2C[C@H]1C(=O)NC(C)(C)C is ___
52

----------
PROTOCOL_NOTES: oral bioavailability in Monkeys
Assay type: ADME, organism-based
STUDY_CONDITIONS: simiiformes, in vivo, read-out: Bioavailabiility
MEASURE_NAME: bioavailability (%)
Reply with just the number (in %).

Fill in: bioavailability of N[C@H]1CC[C@H](CNC(=O)[C@@H]2CCCN2C(=O)C2(O)c3ccccc3-c3ccccc32)CC1 is ___
39

----------
TARGET_OF_ASSAY: Human rhinovirus A protease (Human rhinovirus sp.)
Sequence (Q4U254 whole entry): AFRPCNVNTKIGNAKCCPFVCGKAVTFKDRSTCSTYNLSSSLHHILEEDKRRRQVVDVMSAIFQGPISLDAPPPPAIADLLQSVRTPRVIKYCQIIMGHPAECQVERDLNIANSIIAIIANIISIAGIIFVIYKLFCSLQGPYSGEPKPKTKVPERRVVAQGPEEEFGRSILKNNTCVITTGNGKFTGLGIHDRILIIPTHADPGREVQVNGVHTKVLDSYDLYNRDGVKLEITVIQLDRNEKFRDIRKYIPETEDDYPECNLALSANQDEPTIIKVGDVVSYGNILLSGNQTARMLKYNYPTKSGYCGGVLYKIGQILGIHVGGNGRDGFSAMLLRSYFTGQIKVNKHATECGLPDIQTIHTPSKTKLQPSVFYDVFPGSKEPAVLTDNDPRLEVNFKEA
PROTOCOL_NOTES: The binding affinity against HRV-143C protease.
MEASURE_NAME: Ki (nM)
Reply with just the number (in nM).

Under Human rhinovirus A protease (Human rhinovirus sp.): Ki value of NC(=O)c1ccc2c(c1)C(=O)C(=O)N2Cc1ccc2ccsc2c1 ?
2

----------
TARGET_OF_ASSAY: UniProtKB Q01177
Sequence (Q01177 97-581 limits assumed): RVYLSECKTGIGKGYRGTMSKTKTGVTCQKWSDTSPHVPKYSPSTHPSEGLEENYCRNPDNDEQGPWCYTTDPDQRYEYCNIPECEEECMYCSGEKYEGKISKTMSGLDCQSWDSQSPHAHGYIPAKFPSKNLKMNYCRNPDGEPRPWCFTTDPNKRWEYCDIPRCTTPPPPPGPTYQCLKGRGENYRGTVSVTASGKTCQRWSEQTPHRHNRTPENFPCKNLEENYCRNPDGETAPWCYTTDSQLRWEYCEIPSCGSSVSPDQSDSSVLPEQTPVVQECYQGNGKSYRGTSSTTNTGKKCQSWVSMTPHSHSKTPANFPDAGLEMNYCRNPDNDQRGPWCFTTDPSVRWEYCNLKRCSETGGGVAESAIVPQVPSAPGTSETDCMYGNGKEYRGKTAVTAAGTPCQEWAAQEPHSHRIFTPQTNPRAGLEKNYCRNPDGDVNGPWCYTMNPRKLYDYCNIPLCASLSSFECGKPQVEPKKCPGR
Sequence (Q01177 582-812 limits assumed): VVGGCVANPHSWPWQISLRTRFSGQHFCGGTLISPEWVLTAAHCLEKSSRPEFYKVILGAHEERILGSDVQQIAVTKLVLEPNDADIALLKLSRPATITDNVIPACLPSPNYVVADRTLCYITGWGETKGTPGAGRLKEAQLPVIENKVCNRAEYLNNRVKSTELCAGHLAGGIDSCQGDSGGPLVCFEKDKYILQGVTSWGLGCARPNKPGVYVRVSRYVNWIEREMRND
pIC50: −log10 of the molar value.
MEASURE_NAME: pIC50

Under UniProtKB Q01177: pIC50 value of CC(/C=C/C=C/c1ccccc1)=C1/SC(=S)N(CC(=O)O)C1=O ?
< 3.84

----------
PROTOCOL_NOTES: Binding affinity against plasmepsin
Parameters: species or system Plasmodium falciparum
MEASURE_NAME: Ki (nM)
Reply with just the number (in nM).

Fill in: Ki of COc1ccc(CCN(C[C@H](O)[C@H](Cc2ccccc2)NC(=O)COc2cccc(Cl)c2)C(=O)C2CCNCC2)cc1 is ___
4.3

----------
PROTOCOL_NOTES: Half life in dogs.
Assay type: ADME, organism-based, Canis lupus familiaris
STUDY_CONDITIONS: dog, in vivo
MEASURE_NAME: half-life (h)
Reply with just the number (in h).

Fill in: half-life of CNC1CCN(C(=O)C[C@@H](Cc2ccccc2)C(=O)N[C@@H](CSC)C(=O)N[C@@H](CC2CCCCC2)[C@@H](O)C(=O)OC(C)C)CC1 is ___
2.4

----------
TARGET_OF_ASSAY: Calpain-2 catalytic subunit (Homo sapiens, UniProt P17655)
Sequence (P17655 whole entry): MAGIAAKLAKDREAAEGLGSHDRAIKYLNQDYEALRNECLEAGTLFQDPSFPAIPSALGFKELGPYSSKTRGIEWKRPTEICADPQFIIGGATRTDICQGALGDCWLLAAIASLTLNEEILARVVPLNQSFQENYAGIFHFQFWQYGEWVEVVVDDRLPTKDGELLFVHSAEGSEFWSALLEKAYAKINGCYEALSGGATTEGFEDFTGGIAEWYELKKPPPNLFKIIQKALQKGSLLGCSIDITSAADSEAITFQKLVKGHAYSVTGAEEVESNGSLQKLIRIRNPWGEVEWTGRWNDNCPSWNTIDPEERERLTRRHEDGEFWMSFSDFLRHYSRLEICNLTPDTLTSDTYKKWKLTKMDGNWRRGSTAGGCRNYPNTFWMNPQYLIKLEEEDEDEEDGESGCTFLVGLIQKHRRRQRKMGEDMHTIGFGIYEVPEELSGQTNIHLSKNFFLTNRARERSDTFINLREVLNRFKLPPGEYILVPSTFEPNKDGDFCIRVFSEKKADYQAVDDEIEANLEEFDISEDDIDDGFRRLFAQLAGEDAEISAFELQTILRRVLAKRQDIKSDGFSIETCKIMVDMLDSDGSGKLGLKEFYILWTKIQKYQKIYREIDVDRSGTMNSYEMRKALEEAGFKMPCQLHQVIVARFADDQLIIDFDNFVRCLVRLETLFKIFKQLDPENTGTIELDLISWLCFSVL
PROTOCOL_NOTES: Inhibitory activity against Calpain 2
Residues, ends and D or L forms follow the SMILES beside them. *: point of attachment. Cbz = O=C(OCc1ccccc1)*
MEASURE_NAME: pIC50
Scale note: pIC50 = -log10(concentration in M).

Fill in: pIC50 of O=C[C@H](Cc1ccc(O)cc1)NC(=O)[C@H](Cc1ccccc1)NC(=O)OCc1ccccc1 (Cbz-Phe-Tyr-aldehyde) is ___
6.74
